- ASSAY_PROTOCOL: Toxicity, single oral administration to mice
- ASSAY_CONDITIONS: mouse, in vivo, p.o., no toxic symptoms at the dosage indicated, read-out: Toxicity, Dosage (no toxic symptoms observed at this amount)
ASSAY_READOUT: NOAEL

[[record]]
molecule = "CCCCCCCCCCC[C@]1(C)OO[C@@H]2C[C@H]1CC(=O)[C@@H]2C [(CH2)10CH3 (1R, 4S, 5S, 8R)]"
assay_value = "3000 mg/kg"

[[record]]
molecule = "C[C@H]1C(=O)C[C@@H]2C[C@H]1OO[C@]2(C)/C=C\\c1cc(C(F)(F)F)nc2cc(C(F)(F)F)ccc12 [drawing 9]"
assay_value = "6000 mg/kg"

[[record]]
molecule = "CCCCCCCCCCC[C@@]1(C)OO[C@@H]2C[C@H]1CC(=O)[C@@H]2C [(CH2)10CH3 (1R, 4R, 5S, 8R)]"
assay_value = "3000 mg/kg"

